Reference source: ChEMBL document CHEMBL2163288

Listed here are compounds together with their documented log10 IC50.
Test: Inhibition of human carboxypeptidase N using Hip-Lys as substrate incubated for 10 mins prior to substrate addition measured after 30 mins by spectrophotometric analysis in presence of dithiothreitol
Please note: log10 values; quantity IC50; unit µM.

• Nc1ccc(CC(C[Se][Se]CC(Cc2ccc(N)nc2)C(=O)O)C(=O)O)cn1 (centres undefined) = -3.54
• CCOC(=O)C(CCCCCN)C[Se]C(=O)CC (centres undefined) = -0.80
• NCCCCCC(C[Se]C(=O)CCc1ccccc1)C(=O)O (centres undefined) = -1.85

Quickly give me recorded log10 IC50 for CCOC(=O)C(C[Se]C(=O)CC)Cc1ccc(N)nc1 (centres undefined)
0.23

Give the measured log10 IC50 for CCC(=O)[Se]CC(CCCCCN)C(=O)O (centres undefined)
-1.74

Answer with reported log10 IC50 of NCCCCCC(C[Se][Se]CC(CCCCCN)C(=O)O)C(=O)O (centres undefined)
-2.07

Give the reported log10 IC50 for this compound. NCCCCCC(C[Se]C(=O)CCCc1ccccc1)C(=O)O (centres undefined)
-1.80

----------
Target: Carboxypeptidase B2 (Homo sapiens, UniProt Q96IY4)
Sequence (Q96IY4 whole entry): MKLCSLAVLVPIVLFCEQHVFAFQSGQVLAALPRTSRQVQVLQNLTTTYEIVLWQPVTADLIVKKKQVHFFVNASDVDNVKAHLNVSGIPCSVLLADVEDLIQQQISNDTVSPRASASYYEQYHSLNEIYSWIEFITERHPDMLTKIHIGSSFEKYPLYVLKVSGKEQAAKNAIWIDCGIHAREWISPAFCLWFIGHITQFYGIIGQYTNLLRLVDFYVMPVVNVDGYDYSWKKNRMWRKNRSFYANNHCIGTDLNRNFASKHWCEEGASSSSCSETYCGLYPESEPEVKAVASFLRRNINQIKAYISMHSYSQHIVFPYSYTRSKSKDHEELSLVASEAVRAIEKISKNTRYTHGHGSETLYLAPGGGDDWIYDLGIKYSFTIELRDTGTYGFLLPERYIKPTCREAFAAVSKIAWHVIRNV
Assay: Inhibition of human activated TAFI using Hip-Arg as substrate incubated for 10 mins prior to substrate addition measured after 30 mins by spectrophotometric analysis
Doc: threshold 0.8 µM (exclusive). Items with IC50 beneath it return fulfilled; others return not fulfilled.

Consider the following illustrative entries.
- NCCCCCC(CS)C(=O)O (configuration not stated): fulfilled
- CCOC(=O)C(CCCCCN)CSC(C)=O (configuration not stated): not fulfilled
- CCC(=O)[Se]CC(CCCCCN)C(=O)O (configuration not stated): fulfilled
- NCCCCCC(C[Se]C(=O)CCc1ccccc1)C(=O)O (configuration not stated): not fulfilled
- CCOC(=O)C(C[Se]C(=O)CC)Cc1cnc(N)c(Cl)c1 (configuration not stated): not fulfilled
- Nc1ccc(CC(C[Se][Se]CC(Cc2ccc(N)nc2)C(=O)O)C(=O)O)cn1 (configuration not stated): fulfilled

Hello, is IC50 of the following compound strictly smaller than 0.8 µM? CC(=O)SCC(CCCCCN)C(=O)O (configuration not stated)
not fulfilled

----------
Assay: Inhibition of human carboxypeptidase N using Hip-Lys as substrate incubated for 10 mins prior to substrate addition measured after 30 mins by spectrophotometric analysis
endpoint: IC50 (µM)
Number in µM, nothing else.

• NCCCCCC(C[Se]C(=O)CCc1ccccc1)C(=O)O (centres undefined) = 1.7
• CCC(=O)[Se]CC(CCCCCN)C(=O)O (centres undefined) = 2
• Nc1ccc(CC(C[Se][Se]CC(Cc2ccc(N)nc2)C(=O)O)C(=O)O)cn1 (centres undefined) = 4.2
• NCCCCCC(C[Se]C(=O)CCCc1ccccc1)C(=O)O (centres undefined) = 6
• CC(C)[C@H](NC(=O)CCc1ccccc1)P(=O)(O)C[C@@H](CCCCCN)C(=O)O = 6.7
• NCCCCCC(CS)C(=O)O (centres undefined) = 1.4
• CCOC(=O)C(CCCCCN)C[Se]C(=O)CC (centres undefined) = 14
• CCOC(=O)C(C[Se]C(=O)CC)Cc1ccc(N)nc1 (centres undefined) = 15

Read the entry CC(=O)SCC(CCCCCN)C(=O)O (centres undefined) and write its reported IC50.
160

Please give the documented IC50 of CCOC(=O)C(CS)CCCCCN (centres undefined)
25

----------
Reported pIC50 values are given for each entry in this list.
Target: Carboxypeptidase B2 (Homo sapiens)
Assay: Inhibition of human activated TAFI using Hip-Arg as substrate incubated for 10 mins prior to substrate addition measured after 30 mins by spectrophotometric analysis
Hey, just a heads up that pIC50 is the negative log base 10 of the concentration in molar.

* CCOC(=O)C(CCCCCN)C[Se]C(=O)CC (configuration not stated) | 5.85
* Nc1ncc(CC(C[Se][Se]CC(Cc2cnc(N)c(Cl)c2)C(=O)O)C(=O)O)cc1Cl (configuration not stated) | 5.48
* CCOC(=O)C(CS)CCCCCN (configuration not stated) | 4.21
* CCOC(=O)C(C[Se]C(=O)CC)Cc1ccc(N)nc1 (configuration not stated) | 3.74
* CC(C)[C@H](NC(=O)CCc1ccccc1)P(=O)(O)C[C@@H](CCCCCN)C(=O)O | 8.26

Find the measured pIC50 of NCCCCCC(C[Se]C(=O)CCCc1ccccc1)C(=O)O (configuration not stated) and report it.
5.80

----------
Listed here: items and their measured log10 of IC50.
Molecular target: UniProtKB P09955
Sequence (P09955 whole entry): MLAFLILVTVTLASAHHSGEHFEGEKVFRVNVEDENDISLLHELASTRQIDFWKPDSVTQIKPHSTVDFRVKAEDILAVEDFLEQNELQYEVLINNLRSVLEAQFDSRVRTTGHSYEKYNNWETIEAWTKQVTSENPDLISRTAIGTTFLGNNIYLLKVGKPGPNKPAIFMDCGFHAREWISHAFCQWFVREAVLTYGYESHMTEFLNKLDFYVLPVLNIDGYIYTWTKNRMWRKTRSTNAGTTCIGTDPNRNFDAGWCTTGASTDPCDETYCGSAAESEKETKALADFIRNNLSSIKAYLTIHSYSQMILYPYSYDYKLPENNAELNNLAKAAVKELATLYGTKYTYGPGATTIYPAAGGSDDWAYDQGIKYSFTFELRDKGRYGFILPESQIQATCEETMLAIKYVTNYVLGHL
Test: Inhibition of pig pancreatic carboxypeptidase B using Hip-Arg as substrate incubated for 10 mins prior to substrate addition measured after 30 mins by spectrophotometric analysis
Heads up: the numbers are on a log10 scale; they represent IC50 in µM.

* NCCCCCC(C[Se]C(=O)CCCc1ccccc1)C(=O)O (stereo not drawn) | 0.18

Indicate its recorded log10 of IC50; the compound in question is Nc1ccc(CC(C[Se][Se]CC(Cc2ccc(N)nc2)C(=O)O)C(=O)O)cn1 (stereo not drawn)
-0.55

Supply measured log10 of IC50 of "CC(C)[C@H](NC(=O)CCc1ccccc1)P(=O)(O)C[C@@H](CCCCCN)C(=O)O" in your reply.
-2.31

Give a short answer stating reported log10 of IC50 for NCCCCCC(C[Se][Se]CC(CCCCCN)C(=O)O)C(=O)O (stereo not drawn) .
2.04

Given the compound CCOC(=O)C(CCCCCN)CSC(C)=O (stereo not drawn) , write its reported log10 of IC50.
1.28

Look up and report measured log10 of IC50 for this entry: CC(=O)SCC(CCCCCN)C(=O)O (stereo not drawn)
0.15

Answer with the recorded log10 of IC50 for the compound listed here: NCCCCCC(C[Se]C(=O)CCc1ccccc1)C(=O)O (stereo not drawn)
0.15

Please give measured log10 of IC50 of the following entry: CCOC(=O)C(CS)CCCCCN (stereo not drawn)
2.41

Report measured log10 of IC50; entry is CCOC(=O)C(CCCCCN)C[Se]C(=O)CC (stereo not drawn)
2.96

Report log10 of IC50, nothing else, for this compound: Nc1ncc(CC(C[Se][Se]CC(Cc2cnc(N)c(Cl)c2)C(=O)O)C(=O)O)cc1Cl (stereo not drawn)
2.57

Note log10 of IC50 for the compound shown: CCC(=O)[Se]CC(CCCCCN)C(=O)O (stereo not drawn)
0.28

----------
The entries below are paired with their reported Ratio IC50.
Assay: Selectivity ratio of IC50 for pig pancreatic carboxypeptidase B to IC50 for human activated TAFI
Write the number on its own, no unit after it.

For orientation, consider the following solved cases.
- Nc1ccc(CC(C[Se][Se]CC(Cc2ccc(N)nc2)C(=O)O)C(=O)O)cn1 (centres undefined): 3
- CCOC(=O)C(C[Se]C(=O)CC)Cc1ccc(N)nc1 (centres undefined): 3
- Nc1ncc(CC(C[Se][Se]CC(Cc2cnc(N)c(Cl)c2)C(=O)O)C(=O)O)cc1Cl (centres undefined): 3

Query Ratio IC50 for CCOC(=O)C(C[Se]C(=O)CC)Cc1cnc(N)c(Cl)c1 (centres undefined)
3

----------
Target: Carboxypeptidase B2 (Homo sapiens)
Experiment: Inhibition of human activated TAFI using Hip-Arg as substrate incubated for 10 mins prior to substrate addition measured after 30 mins by spectrophotometric analysis in presence of dithiothreitol
pIC50: −log10 of the molar value.
Note to self: class = bucket of pIC50, per interval 1 (below 8), interval 2 (8 to below 9), interval 3 (9 or more)

* NCCCCCC(C[Se][Se]CC(CCCCCN)C(=O)O)C(=O)O (centres undefined) | interval 2
* CCOC(=O)C(CCCCCN)C[Se]C(=O)CC (centres undefined) | interval 1
* CCOC(=O)C(C[Se]C(=O)CC)Cc1ccc(N)nc1 (centres undefined) | interval 1
* CCOC(=O)C(C[Se]C(=O)CC)Cc1cnc(N)c(Cl)c1 (centres undefined) | interval 1
* NCCCCCC(C[Se]C(=O)CCc1ccccc1)C(=O)O (centres undefined) | interval 2

Kindly identify the class of NCCCCCC(C[Se]C(=O)CCCc1ccccc1)C(=O)O (centres undefined) .
interval 2

Assign a bin to Nc1ccc(CC(C[Se][Se]CC(Cc2ccc(N)nc2)C(=O)O)C(=O)O)cn1 (centres undefined)
interval 3

Categorize the following entry: Nc1ncc(CC(C[Se][Se]CC(Cc2cnc(N)c(Cl)c2)C(=O)O)C(=O)O)cc1Cl (centres undefined)
interval 3
